# System: Escherichia coli TOP10;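 note: peptides expressed intracellularly from a pBAD plasmid library in pooled LB shake-flask culture, induced with 0.3% L-arabinose, DNA abundance read by NGS, three biological replicates, DESeq2 with apeglm shrinkage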
# PROCEDURE_TEXT: shrunken log2 fold change of peptide-encoding DNA abundance (4.5 h post-induction vs induction); higher = less antimicrobial activity (less host growth inhibition)
# PARTICULARS: time post-induction: 4.5 h; library: site-saturation at positions 5, 18, 19, 20
The class of a record is decided solely by its measured shrunken log2 fold change; consult interval 1 (below -0.02), interval 2 (-0.02 to below 0.8), interval 3 (0.8 or more)

SEQUENCE_CODE: RRIRARPPRLPRPRPRPPRRPRP
ASSIGNED_CATEGORY: interval 3

SEQUENCE_CODE: RRIRGRPPRLPRPRPRPHEHPRP
ASSIGNED_CATEGORY: interval 3

SEQUENCE_CODE: RRIRFRPPRLPRPRPRPKDCPRP
ASSIGNED_CATEGORY: interval 2

SEQUENCE_CODE: RRIRVRPPRLPRPRPRPGILPRP
ASSIGNED_CATEGORY: interval 1

SEQUENCE_CODE: RRIRERPPRLPRPRPRPWMAPRP
ASSIGNED_CATEGORY: interval 1

SEQUENCE_CODE: RRIRGRPPRLPRPRPRPTGMPRP
ASSIGNED_CATEGORY: interval 3

SEQUENCE_CODE: RRIRNRPPRLPRPRPRPHWGPRP
ASSIGNED_CATEGORY: interval 1

SEQUENCE_CODE: RRIRNRPPRLPRPRPRPMRAPRP
ASSIGNED_CATEGORY: interval 2

SEQUENCE_CODE: RRIRDRPPRLPRPRPRPAKFPRP
ASSIGNED_CATEGORY: interval 2

SEQUENCE_CODE: RRIRKRPPRLPRPRPRPALFPRP
ASSIGNED_CATEGORY: interval 2

SEQUENCE_CODE: RRIRRRPPRLPRPRPRPYINPRP
ASSIGNED_CATEGORY: interval 1

SEQUENCE_CODE: RRIRSRPPRLPRPRPRPSFEPRP
ASSIGNED_CATEGORY: interval 2

SEQUENCE_CODE: RRIRMRPPRLPRPRPRPLRCPRP
ASSIGNED_CATEGORY: interval 3

SEQUENCE_CODE: RRIRRRPPRLPRPRPRPWSYPRP
ASSIGNED_CATEGORY: interval 1
